Taken from patent US11440906B2.

Test system: A375 Sensitive cells
Assay: Viability test, trypan blue exclusion, A375 Sensitive cells
Type: cell-based, human
Details: Homo sapiens, A-375; 10 μM, 48 h; viable cells as percentage of DMSO control; read-out: Viab A375 10 μM/ 48 h
The following compounds are listed with their measured viability at 10 µM values.
Lab book: enter the figure in %, no units written.

* CSc1ccccc1Nc1nc(N)nc(C(Cl)Cl)n1 | 70
* COc1ccc(C(=N)NC(=N)Nc2nc(C)cs2)cc1 | 71.9

Now consider the entry below.
Short answer for Nc1nc(Nc2ccccc2SSc2ccccc2Nc2nc(N)nc(-c3c(Cl)cccc3Cl)n2)nc(-c2c(Cl)cccc2Cl)n1 : viability at 10 µM was 69.5
